Just for reference, the supplement of paper PMC10201428 is where these values come from.

Tested on: VchCAST RNA-guided transposition machinery (E. coli BL21(DE3) host, lacZ target)
Assay: relative integration efficiency (T-LR orientation) vs wild-type transposon end (log2 (normalized fold change)); transposon end mutated: left end; higher = more efficient transposition
readout label: relative integration efficiency (log2)
Keep it simple and answer with nothing but the number.

// solved cases for relative integration efficiency (log2) follow
chain	relative integration efficiency (log2)
AATGTTGTTGATGCAACCATAAAGTGATATTTAATAATTATTTATAATCAGCAACTTAACCAACCCCACCAACGCGCGGTCGCGAGACACCCCACCAACGCCTGGTCGCGGGGGTGTCCGATCTGATTTCAGCAAAACTACTGCAGTAAGAA	-4.2
AATGTTGTTGATGCAACCATAAAGTGATATTTAATAATTATCAACCATATATTGATATCTCTTATAATCAGCAACTTAACCACAAAAACAAAACAACCATAAGTTGATATTTTTGTGAATCGAGTATTTCAGCAAAACTACTGCAGTAAGAA	-2.13
AATGTTGTTGATGCAACCATAAAGTGATATTTAATAATTATTTATAATACTACCAGGCCAACACCCCACCAACGCGCGGTCGCGAGACACCCCACCAACGCCTGGTCGCGGGGGTGTCCGATCTGATTTCAGCAAAACTACTGCAGTAAGAA	-3.51

Task: Look up relative integration efficiency (log2) with VchCAST RNA-guided transposition machinery (E. coli BL21(DE3) host, lacZ target) for this sequence: AATGTTGTTGATGCAACCATAAAGTGATAATAATTATTTATAATCAGCAACTTAACCACAAAACAACCATATATTGATATCTCACAAAACAACCATAAGTTGATATTTTTGTGAATCGAGTATTTCAGCAAAACTACTGCAGTAAGAAAGTT
Output: -6.51
